- MEASUREMENT_TARGET: T1, beta-lactoglobulin (UniProt P02754 P02754:17-178)
- T1 sequence: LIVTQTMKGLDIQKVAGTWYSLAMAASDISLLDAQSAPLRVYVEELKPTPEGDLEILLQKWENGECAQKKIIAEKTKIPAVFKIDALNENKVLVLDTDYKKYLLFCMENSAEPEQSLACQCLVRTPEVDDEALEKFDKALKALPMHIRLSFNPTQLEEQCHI
- EXPERIMENT_DESCRIPTION: magnetic bead strand-displacement fluorescence assay, 37 C; aptamer hybridised to biotinylated short chain, released by 50 ug/mL protein; ITC in 10 mM Tris-HCl
- PARTICULARS: label: 5'-FAM (fluorescence assay); stem-loop (Mfold predicted)
ENDPOINT_NAME: Kd (nM)
Response body: numeric value in nM, unit text excluded.

Lab book: Kd of Lg-18 (ssDNA) DNA: AGCAGCACAGAGGTCAGATGTTCGGCCTTTGCGTTAACGAACTTCTAGCTATGCGGCGTACCTATGCGTGCTACCGTGAA noted as 65
